These data points were gathered from PubChem BioAssay (NCI).

# Experimental protocol: NCI Yeast Anticancer Drug Screen. Data for the cln2 rad14 strain (AID 165);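 note: 0% = growth equal to vehicle treated cultures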
# Assay setup: S. cerevisiae cln2 rad14 strain, at 50.0 µM, active compounds read high
Compounds without any hit were thinned out: in the full panel of roughly 79,000, 15% have a hit.
Could you label it Fulfilled if measured growth inhibition is 20% or higher, and Not fulfilled otherwise?

Compound	Discrete label
CC(=O)/C(=C\c1ccccc1F)C(=O)CCN(C)C	Not fulfilled
O=C(Nc1ccc(S(=O)(=O)N2CCCCC2)cc1)Oc1ccccc1C(=O)O	Not fulfilled
Cc1ccc(S(=O)CC(Cl)c2ccccc2)cc1 (configuration not stated)	Fulfilled
CC1(C)OC(=O)N=C1c1ccc(F)cc1	Not fulfilled
O=C(/C=C/c1ccc(F)c(F)c1)OCCc1ccccc1	Fulfilled
CC(=O)C(C)CO (configuration not stated)	Not fulfilled
CCOC(=O)/C(=C/c1ccc(N(CCC#N)CCC#N)cc1C)NC(=O)/C=C/c1ccccc1	Not fulfilled

====

# Experimental protocol: NCI Yeast Anticancer Drug Screen. Data for the rad50 strain (AID 155);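 note: 0% = growth of vehicle-only cultures of the same strain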
# Assay setup: S. cerevisiae rad50 strain growth inhibition; at 50.0 µM; active compounds read high
About 79,000 compounds went through this panel and 15% of them were active in at least one assay; those are over-represented in the sample as a whole.
Measured property: growth inhibition (%)

Compound	Measured property	Obs value
C=CCc1cccc(C2N(Cc3ccc(OC)cc3OC)CCCN2Cc2ccc(OC)cc2OC)c1O	growth inhibition	26.6
CN(C)CCCC1(O)c2ccccc2Sc2cc(Cl)ccc21 (stereo unspecified)	growth inhibition	12.9
Cc1ccc(N=C2C(c3ccccc3)=C(SC3=C(c4ccccc4)C(=Nc4ccc(C)cc4)c4ccccc43)c3ccccc32)cc1	growth inhibition	12.9
COC(=O)c1nc(N)nc(C(=O)OC)c1C(=O)C(C)C	growth inhibition	5.4
CCCNC(=S)NN1C2CSC1CS2	growth inhibition	3.15
Cn1c(=O)oc2cc(C(=O)CSC(=S)N3CCCCCC3)ccc21	growth inhibition	-18.3
N#CCc1nc2ccccc2[nH]1	growth inhibition	7.95
CCCC(=O)c1ccccc1	growth inhibition	35.5
CC(C)(C=O)OC(=O)c1cc([N+](=O)[O-])cc([N+](=O)[O-])c1	growth inhibition	7.2
CCCCCCC1CCC(=O)CC1	growth inhibition	31.9
C/C=C/C=N/NS(=O)(=O)c1ccc(C)cc1	growth inhibition	11.3
CCOC(=O)C1CNCCC1=O (stereo unspecified)	growth inhibition	-5.25
COc1ccc(C#CCC(OC2OC(CO)C(O)C(O)C2O)C(O)c2ccc(OC)c(OC)c2)cc1OC (stereo unspecified)	growth inhibition	-0.15
Cc1cc(NC(=S)Nc2ccccc2)c(NC(=S)Nc2ccccc2)cc1C	growth inhibition	2.1
COc1ccc(CCNC(=S)N/C=C\c2nc3ccccc3[nH]c2=O)cc1OC	growth inhibition	11.1
O=C(OC[P+](c1ccccc1)(c1ccccc1)c1ccccc1)c1ccccc1	growth inhibition	44

====

# Experimental protocol: NCI Yeast Anticancer Drug Screen. Data for the rad50 strain (AID 155);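 note: 0% = growth of vehicle-only cultures of the same strain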
# Assay setup: S. cerevisiae rad50 strain growth inhibition; at 50.0 µM; active compounds read high
This is part of a sample that, as a whole, favours compounds with a hit. Of some 79,000 tested, about 15% had one in any assay.

Compound	growth inhibition [%]
Cc1cc(Br)c2c(c1N)C(=O)c1ccccc1C2=O	23.6
CC1CCC2N(C1)CC1C3(O)CC4(O)C(CCC5C(=O)C(O)CCC54C)C3(O)CC(O)C1(O)C2(C)O (stereo unspecified)	5.5
NC(=O)n1ncc(Cl)c(Cl)c1=O	-7.25
CN1C(c2ccccc2)=C(C#N)C(=O)CC(c2ccc(Cl)cc2)N1C (stereo unspecified)	-7.75
CC1CCc2ccccc2N1C(=O)c1cccc([N+](=O)[O-])c1C(=O)O (stereo unspecified)	-6.1
CCCc1cc(=O)oc2c3c(cc(OC(C)C)c12)O[C@H](C)[C@H](C)[C@@H]3O	3.55
COC(=O)C1C(C)C1c1ccc2c(c1)OCO2 (stereo unspecified)	2.65
COc1ccc2ncc(C)c(CO)c2c1	3.25
O=C(CCN1CCOCC1)Nc1ccc(F)cc1F	-18.8
CCCC1OCC(C)(CC)CO1 (stereo unspecified)	27.6
O=C(O)C1CSC2(CCCN(Cc3ccccc3)C2)N1 (stereo unspecified)	-17.7
O=C1/C(=C/c2ccc(O)cc2)CCC/C1=C\c1ccc(O)cc1	3.9
CC1(C)CN(CCO)C(C)(C)CN1	30.6
Nc1nc(N)c2c(n1)CCC(CNc1ccc(C(=O)NC(CCC(=O)O)C(=O)O)cc1)C2 (stereo unspecified)	23.6
CNc1ccccc1C(N)=S	5.9
COC(=O)/C=C/c1ccc(OC)c(OC)c1	22.3
CC1CC(=O)Nc2nc(N)ncc21 (stereo unspecified)	19.4
CCN1CC(O)Cc2ccccc21 (stereo unspecified)	-3.55
CN(C)/C=N\c1ncnc2c1ccn2C1OC(CO)C(O)C1O (stereo unspecified)	-2.15
O=C1NC(=O)C2(CCCCCC2)N1	-23.9
COc1cc(OC)c2c(=O)cc(-c3ccc(OC)c(OC)c3OC)oc2c1	-31.8
CCCCC(=O)Nc1ccc(Cl)cc1	18.2
Cc1cc2oc(=O)[nH]c(=S)c2c(C)c1C	-47.7
COC(=O)C(=O)c1c(C(=O)OC)nc2nnc(N)n2c1-c1ccc(Cl)c(Cl)c1	1.7
C/C(=N\n1c(-c2ccccc2)nc2ccccc2c1=O)c1ccc(C)cc1	5.25
COC(=O)C(/C(=N/NC(N)=O)C(=O)Nc1c(C)cccc1C(C)(C)C)c1nc2ccc(Cl)cc2[nH]c1=O (stereo unspecified)	-3.9
c1ccc([Si](c2ccccc2)(c2cccs2)c2cccs2)cc1	-8.35
O=C(/C(=C/c1ccccc1)c1ccc(Cl)cc1)c1ccccc1	12.6
NC1CCC2(O)c3ccccc3C2C1 (stereo unspecified)	-0.95
COC(=O)C(Nc1ccc(OC)cc1)c1ccccc1 (stereo unspecified)	-3.85
CC(CCc1nc2ccccc2[nH]1)c1nc2ccccc2[nH]1 (stereo unspecified)	-18.6
CC1CC(=O)CC[C@@H]1OCc1ccccc1 (stereo partly specified)	5.95
COCCCNC1=C(C#N)C(=O)NC2(CCCC2)S1	-35.6
S=C(Nc1ccc(I)cc1)SCc1ccc2c(c1)OCO2	32.5
COC1CC(NC(C)=O)C2OC(c3ccccc3)OCC2O1 (stereo unspecified)	4.35
Clc1nc2ccccc2s1	-32.4
